studySystem: mushroom tyrosinase (mTYR) (Agaricus bisporus)
Construct: purchased Sigma-Aldrich (Milan, Italy)
testProtocol: Inhibition of mushroom tyrosinase diphenolase reaction (substrate L-dopa, dopachrome at 475 nm)
Assay type: biochemical
conditionDetails: KI Competitive, diphenolase, inhibitor 0.70 µM
pKi: −log10 of the molar value.
endpointLabel: pKi

In [3]: df
Out[3]:
                           entrysmiles  measured
0  COc1cc(/C=C/C(=O)c2ccc(O)cc2O)ccc1O      5.81

* * *

studySystem: mushroom tyrosinase (mTYR) (Agaricus bisporus, UniProt C7FF04)
Construct: purchased Sigma-Aldrich (Milan, Italy)
Sequence (C7FF04 1-392): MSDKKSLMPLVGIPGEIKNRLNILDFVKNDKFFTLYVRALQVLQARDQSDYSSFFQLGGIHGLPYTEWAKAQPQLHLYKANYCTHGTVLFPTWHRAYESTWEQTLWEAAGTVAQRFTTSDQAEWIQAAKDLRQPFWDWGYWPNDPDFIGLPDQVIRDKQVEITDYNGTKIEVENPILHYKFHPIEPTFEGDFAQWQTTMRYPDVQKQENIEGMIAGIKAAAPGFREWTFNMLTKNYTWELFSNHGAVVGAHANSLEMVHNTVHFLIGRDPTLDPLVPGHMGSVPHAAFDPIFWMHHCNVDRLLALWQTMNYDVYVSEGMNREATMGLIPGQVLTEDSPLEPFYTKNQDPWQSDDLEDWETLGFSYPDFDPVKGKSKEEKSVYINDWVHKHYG
testProtocol: Inhibition of mushroom tyrosinase diphenolase reaction (substrate L-dopa, dopachrome at 475 nm)
Type: biochemical
conditionDetails: KI Competitive, diphenolase, average over inhibitor concentrations
pKi: −log10 of the molar value.
endpointLabel: pKi

>>> df
                            entrysmiles  measured
0  O=C(/C=C/c1ccc(O)c(O)c1)c1ccc(O)cc1O      5.48
1   COc1cc(/C=C/C(=O)c2ccc(O)cc2O)ccc1O      5.60
